test system: K. pneumoniae MP-546; assay: MIC determination by CLSI broth dilution, K. pneumoniae MP-546; type: cell-based; details: Klebsiella pneumoniae, MP546, CLSI broth dilution; strain MP-546
MIC values by entry

record.smiles	MIC
CCC(=O)N1CCN(C[C@H]2[C@H](C)OC(=O)C(C)(C)C(=O)[C@H](C)[C@@H](O[C@@H]3O[C@H](C)C[C@H](N(C)C)[C@H]3O)[C@](C)(OC)C[C@@H](C)CN2C)CC1	> 32 mg/L
CCCN1CCC(C[C@H]2N(C)C[C@H](C)C[C@@](C)(OC)[C@H](O[C@@H]3O[C@H](C)C[C@H](N(C)C)[C@H]3O)[C@@H](C)C(=O)C(C)(C)C(=O)OC2(C)C)CC1	< 4 mg/L
CO[C@]1(C)C[C@@H](C)CN(C)[C@H](CC2CCNCC2)COC(=O)C(C)(C)C(=O)[C@H](C)[C@H]1O[C@@H]1O[C@H](C)C[C@H](N(C)C)[C@H]1O	> 32 mg/L
CCCN1C[C@H](C)C[C@@](C)(OC)[C@H](O[C@@H]2O[C@H](C)C[C@H](N(C)C)[C@H]2O)[C@@H](C)C(=O)C(C)(C)C(=O)OC[C@H]1CC1CCN(C)CC1	< 4 mg/L
CO[C@]1(C)C[C@@H](C)CN(C)[C@H](CC2CCN(CC3CC3)CC2)COC(=O)C(C)(C)C(=O)[C@H](C)[C@H]1O[C@@H]1O[C@H](C)C[C@H](N(C)C)[C@H]1O	< 4 mg/L

###

tested on: K. pneumoniae MP-648; assay: MIC determination by CLSI broth dilution, K. pneumoniae MP-648; assay type: cell-based; details: Klebsiella pneumoniae, MP648, CLSI broth dilution; strain MP-648

record.smiles	target.or.test.system	MIC
CO[C@]1(C)C[C@@H](C)CN(C)[C@@H](CCCN2CCOCC2)COC(=O)C(C)(C)C(=O)[C@H](C)[C@H]1O[C@@H]1O[C@H](C)C[C@H](N(C)C)[C@H]1O	K. pneumoniae MP-648	4 to 32 µg/mL
CO[C@]1(C)C[C@@H](C)CN(C)[C@@H](CCCN2CC[C@@H](F)C2)COC(=O)C(C)(C)C(=O)[C@H](C)[C@H]1O[C@@H]1O[C@H](C)C[C@H](N(C)C)[C@H]1O	K. pneumoniae MP-648	< 4 µg/mL
CCCN(CCC)CC[C@@](C)(O)[C@@H]1COC(=O)C(C)(C)C(=O)[C@H](C)[C@@H](O[C@@H]2O[C@H](C)C[C@H](N(C)C)[C@H]2O)[C@](C)(OC)C[C@@H](C)CN1C	K. pneumoniae MP-648	> 32 µg/mL

###

system: K. pneumoniae MP-648; assay: MIC determination by CLSI broth dilution, K. pneumoniae MP-648; type: cell-based; conditions: Klebsiella pneumoniae, MP648, CLSI broth dilution; strain MP-648

record.smiles	target.or.test.system	MIC
CCN1C[C@H](C)C[C@@](C)(OC)[C@H](O[C@@H]2O[C@H](C)C[C@H](N(C)C)[C@H]2O)[C@@H](C)C(=O)C(C)(C)C(=O)OC[C@H]1[C@H](O)CCN(C1CC1)C1Cc2ccccc2C1	K. pneumoniae MP-648	4 to 32 µg/mL
CCN1C[C@H](C)C[C@@](C)(OC)[C@H](O[C@@H]2O[C@H](C)C[C@H](N(C)C)[C@H]2O)[C@@H](C)C(=O)C(C)(C)C(=O)OC[C@@H]1CCCN1CCN(C)CC1	K. pneumoniae MP-648	> 32 µg/mL
CCCCCCCN1CCC(C[C@@H]2COC(=O)[C@@](C)(COC)C(=O)[C@H](C)[C@@H](O[C@@H]3O[C@H](C)C[C@H](N(C)C)[C@H]3O)[C@](C)(OC)C[C@@H](C)CN2C)CC1	K. pneumoniae MP-648	4 to 32 µg/mL
CCN1C[C@H](C)C[C@@](C)(OC)[C@H](O[C@@H]2O[C@H](C)C[C@H](N(C)C)[C@H]2O)[C@@H](C)C(=O)C(C)(C)C(=O)OC[C@H]1CC1CCN(CCO)CC1	K. pneumoniae MP-648	4 to 32 µg/mL
CO[C@]1(C)C[C@@H](C)CN(C)[C@@H](CCCN(C)C(C)(C)C)COC(=O)C(C)(C)C(=O)[C@H](C)[C@H]1O[C@@H]1O[C@H](C)C[C@H](N(C)C)[C@H]1O	K. pneumoniae MP-648	< 4 µg/mL
CCCN1C[C@H](C)C[C@@](C)(OC)[C@H](O[C@@H]2O[C@H](C)C[C@H](N(C)C)[C@H]2O)[C@@H](C)C(=O)C(C)(C)C(=O)OC[C@@H]1CCCN1CCCC1	K. pneumoniae MP-648	< 4 µg/mL
CCCN1CCC(C[C@@H]2COC(=O)C(C)(C)C(=O)[C@H](C)[C@@H](O[C@@H]3O[C@H](C)C[C@H](N(C)C)[C@H]3O)[C@](C)(OC)C[C@@H](C)CN2CC)CC1	K. pneumoniae MP-648	< 4 µg/mL
CCN1C[C@H](C)C[C@@](C)(OC)[C@H](O[C@@H]2O[C@H](C)C[C@H](N(C)C)[C@H]2O)[C@@H](C)C(=O)C(C)(C)C(=O)OC[C@H]1CC1CCN(CCOC)CC1	K. pneumoniae MP-648	< 4 µg/mL
CCN1C[C@H](C)C[C@@](C)(OC)[C@H](O[C@@H]2O[C@H](C)C[C@H](N(C)C)[C@H]2O)[C@@H](C)C(=O)C(C)(C)C(=O)OC[C@H]1[C@H](O)CCN(C)CC(F)(F)F	K. pneumoniae MP-648	> 32 µg/mL
CO[C@]1(C)C[C@@H](C)CN(C)[C@H](CC2CCN(Cc3ccco3)CC2)COC(=O)C(C)(C)C(=O)[C@H](C)[C@H]1O[C@@H]1O[C@H](C)C[C@H](N(C)C)[C@H]1O	K. pneumoniae MP-648	< 4 µg/mL

###

tested on: E. coli MP-4; test: MIC determination by CLSI broth dilution, E. coli MP-4; format: cell-based; details: Escherichia coli, MP4, CLSI broth dilution; strain MP-4
Some molecules, each annotated with its measured MIC.

molecule	MIC
CCCN1CC=C(C[C@@H]2COC(=O)C(C)(C)C(=O)[C@H](C)[C@@H](O[C@@H]3O[C@H](C)C[C@H](N(C)C)[C@H]3O)[C@](C)(OC)C[C@@H](C)CN2C)CC1 [Compound 59]	< 4 µg/mL
CCN1C[C@H](C)C[C@@](C)(OC)[C@H](O[C@@H]2O[C@H](C)C[C@H](N(C)C)[C@H]2O)[C@@H](C)C(=O)C(C)(C)C(=O)OC[C@H]1CCCN1CCCC1 [Compound 113]	< 4 µg/mL
CC[C@H]1OC(=O)[C@H](C)C(=O)[C@H](C)[C@@H](O[C@@H]2OC(C)CC(N(C)C)C2O)[C@](C)(OC)C[C@@H](C)CN[C@H]1C (stereo partly shown) [Compound 210]	> 32 µg/mL
CCCN1C[C@H](C)C[C@@](C)(OC)[C@H](O[C@@H]2O[C@H](C)C[C@H](N(C)C)[C@H]2O)[C@@H](C)C(=O)C(C)(C)C(=O)OC[C@@H]1CCCN1Cc2ccccc2C1 [Compound 126]	< 4 µg/mL
CO[C@]1(C)C[C@@H](C)CN(C)[C@H](CC2CCN(CC3CCCCC3)CC2)COC(=O)C(C)(C)C(=O)[C@H](C)[C@H]1O[C@@H]1O[C@H](C)C[C@H](N(C)C)[C@H]1O [Compound 55]	< 4 µg/mL
CO[C@]1(C)C[C@@H](C)CN[C@H](CNCCCCCCn2ccnn2)COC(=O)[C@H](C)C(=O)[C@H](C)[C@H]1O[C@@H]1O[C@H](C)C[C@H](N(C)C)[C@H]1O [Compound 220]	> 32 µg/mL
CCN1C[C@H](C)C[C@@](C)(OC)[C@H](O[C@@H]2O[C@H](C)C[C@H](N(C)C)[C@H]2O)[C@@H](C)C(=O)C(C)(C)C(=O)OC[C@H]1[C@H](O)CCN1CCCC1 [Compound 146]	< 4 µg/mL

###

system: K. pneumoniae MP-648; test: MIC determination by CLSI broth dilution, K. pneumoniae MP-648; format: cell-based; settings: Klebsiella pneumoniae, MP648, CLSI broth dilution; strain MP-648
MIC overview

compound	target.or.test.system	MIC
CO[C@]1(C)C[C@@H](C)CN(C)[C@@H](CCCN2Cc3ccccc3C2)COC(=O)C(C)(C)C(=O)[C@H](C)[C@H]1O[C@@H]1O[C@H](C)C[C@H](N(C)C)[C@H]1O [Compound 112]	K. pneumoniae MP-648	< 4 µg/mL
CO[C@]1(C)C[C@@H](C)CN(C)[C@H](CC2CCNCC2)COC(=O)C(C)(C)C(=O)[C@H](C)[C@H]1O[C@@H]1O[C@H](C)C[C@H](N(C)C)[C@H]1O [Compound 51]	K. pneumoniae MP-648	> 32 µg/mL
CCCN1C[C@H](C)C[C@@](C)(OC)[C@H](O[C@@H]2O[C@H](C)C[C@H](N(C)C)[C@H]2O)[C@@H](C)C(=O)C(C)(C)C(=O)OC[C@H]1CC1CCN(C)CC1 [Compound 95]	K. pneumoniae MP-648	< 4 µg/mL
